These measurements were taken from ChEMBL document CHEMBL1777774.

Provide the recorded IC50 for the entries that follow.
Test system: HEK293
Experiment: Cytotoxicity against human HEK293 cells assessed as cell proliferation after 24 hrs by MTT assay
Format: cell-based
Conditions: HEK293, 24 h
Give bare numbers, in µM.

>  <Line notation>
O=C1C=CC(O)(c2cc(=O)c3c(O)cc(O)cc3o2)C=C1

>  <IC50, µM>
6.79

$$$$

Lab note: next molecule to report on.
Report IC50 under test system HEK293 for O=C1C=CC(O)(c2cc(=O)cco2)C=C1 . 30

----------
System: MCF7
Test: Antitumor activity against human MCF7 cells assessed as cell proliferation after 24 hrs by MTT assay
Assay type: functional, cell-based
Conditions: MCF7, 24 h
Provide the recorded pIC50 for the entries that follow.
Give bare numbers, as −log10 of the molar value.

>  <Compound>
O=C1C=CC(O)(c2cc(=O)c3c(O)cc(O)cc3o2)C=C1 [PROTOAPIGENONE]

>  <Assayed target>
MCF7

>  <Assay result>
5.26

$$$$

Lab note: next compound to report on.
For the compound O=C1C=CC(O)(c2cc(=O)cco2)C=C1 , report pIC50. 6.15
